Where do these numbers come from? They come from PubChem BioAssay.

- assay_remarks: E. coli DRC41 culture turbidity changes, primary screen, E. coli filamentation inducer project, strain DRC41, OD650, 48 h (AID 1152);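 also: E. coli MC1000 strain DRC41 lacking acrAB efflux pump and sulA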
- experimental_context: E. coli DRC41 (acrAB sulA), higher = more signal, called active from +8 up or from −8 down
The following compounds are listed with their measured z-score values.

| compound | z-score |
| --- | --- |
| C=C[C@H](OC)[C@@H](OC(=O)Nc1ccc(OC)cc1)c1ccc(OC)c(O)c1 | 2.02 |
| C=CC[C@]1(C(=O)N(C)C)N=C(c2ccc(OCCCO)cc2)O[C@H]1c1ccccc1CN=[N+]=[N-] | 1.19 |
| NCCCCCNC(=O)[C@H]1C[C@H]2C(=O)NCC(=O)N2[C@H]1c1ccc(O)cc1 | 1.01 |
| C[N+](C)(C)CCCCNC(=O)[C@@H]1C[C@@H]2C(=O)NCC(=O)N2[C@@H]1c1cccc(OCCO)c1 | 1.78 |
| O=C(NO)[C@]1(Cc2ccccc2)N=C(c2ccc(OCCCO)cc2)O[C@@H]1c1ccccc1 | 3.88 |
| COC(=O)C1=CC(CCCO)=CC(C2CC2)N(Cc2cc3c(cc2Br)OCO3)C=C1C(=O)OC (stereo unspecified) | 1.55 |
| O=C1c2ccccc2C(=O)c2cc([C@H]3Oc4ccccc4S(=O)(=O)N4CCC[C@@H]34)ccc21 | 3.11 |
| CN(C)CCCC[C@@H]1NC(=O)[C@@H]2C[C@H](C(=O)NCCCCCNC(=O)CS)[C@H](c3cccc(OCCO)c3)N2C1=O | 1.97 |
| COc1c(C)cc(-c2cc3c(c(CCc4ccccc4)n2)[Si](C(C)C)(C(C)C)OC3)cc1C | 2.56 |
| COCCOC(=O)N1C(=O)[C@@]2(c3cc(C#CC4(O)CCCCCC4)ccc31)[C@H](c1ccccc1OCCO)N1[C@H](c3ccccc3)[C@H](c3ccccc3)OC(=O)[C@H]1[C@@H]2C(=O)Nc1nc2ccccc2s1 | 2.49 |
| C=C(CCCC)/C(=C/C[C@@H](OC(=O)c1ccncc1)c1ccc(OCCO)cc1)c1cnc2ccccc2c1 | 1.21 |
| C=CCNC(=O)[C@@H]1[C@H]2C(=O)O[C@H](c3ccccc3)[C@H](c3ccccc3)N2[C@H](c2ccc(O)cc2)[C@@]12C(=O)Nc1ccc(C#Cc3ccc(OC)cc3)cc12 | 2.73 |
| C=CCN1C(=O)[C@@]2(O[C@@H](CCO)[C@H]([Si](C)(C)c3ccc(OC)cc3)[C@H]2C)c2cc(N3C(=O)c4cccc5cccc3c45)ccc21 | 1.29 |
| O=C(O)[C@H]1C[C@H]2C(=O)NCC(=O)N2[C@H]1c1cccc(OCCO)c1 | 2.08 |
| O=C(N1CCCCC1)[C@@]1(Cc2ccccc2)N=C(c2ccc(OCCCO)cc2)O[C@H]1c1ccccc1 | 0.696 |
| C=CCN1C(=O)[C@@]2(O[C@@H](CCn3cc(CCO)nn3)[C@H]([Si](C)(C)c3ccc(OC)cc3)[C@H]2C)c2cc(NC(=O)c3ccc(OC)cc3)ccc21 | 0.596 |
